This collection of values is drawn from patent US20260327191A1.

target: human GSK3α (Homo sapiens, UniProt P49840); construct: Full length human GSK3α or GSK3B expressed as N-terminal GST fusion proteins; GST (N); purchased Carna Biosciences (Japan); host or cells: baculovirus host; experiment: In vitro enzymatic activity assay, GSK3α; assay type: biochemical; details: 1.0 mM ATP, 1.0 μM peptide substrate, 120 min, 25° C, read-out: Enzyme GSK3α (IC50)
Sequence (P49840 whole entry, the tested form may be a part): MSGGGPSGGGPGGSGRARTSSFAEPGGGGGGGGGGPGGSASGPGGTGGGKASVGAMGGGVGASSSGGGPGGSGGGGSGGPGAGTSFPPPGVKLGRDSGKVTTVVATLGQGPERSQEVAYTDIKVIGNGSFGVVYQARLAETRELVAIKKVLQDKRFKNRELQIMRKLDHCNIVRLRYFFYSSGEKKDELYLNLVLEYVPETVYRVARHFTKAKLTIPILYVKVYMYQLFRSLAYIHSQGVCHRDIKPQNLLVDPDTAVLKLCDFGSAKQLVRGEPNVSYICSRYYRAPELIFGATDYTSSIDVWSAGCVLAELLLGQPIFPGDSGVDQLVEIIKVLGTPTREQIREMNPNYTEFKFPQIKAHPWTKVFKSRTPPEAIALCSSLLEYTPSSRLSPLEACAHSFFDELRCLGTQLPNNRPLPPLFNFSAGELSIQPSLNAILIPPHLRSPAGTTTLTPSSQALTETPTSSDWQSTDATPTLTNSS
pIC50: −log10 of the molar value.
endpoint: pIC50

Solved cases below.
{"compound": "Cc1cc(C(F)CF)cc(C)c1-n1cnc(N)c(C(=O)Nc2cncc(C(C)N)c2)c1=O (single isomer, unassigned)", "pIC50": 7.92}
{"compound": "CCOC[C@H](N)c1cncc(NC(=O)c2c(N)ncn(-c3c(Cl)cc(COC)cc3Cl)c2=O)c1 (single isomer, unassigned)", "pIC50": 7.90}
{"compound": "CCCOc1cc(C)c(-n2cnc(N)c(C(=O)Nc3cncc(C(C)N)c3)c2=O)c(C)c1 (single isomer, unassigned)", "pIC50": 7.83}

A = CCOc1cc(Cl)c(-n2cnc(N)c(C(=O)Nc3cncc(CNCCOC)c3)c2=O)c(Cl)c1
B = COc1cc(Cl)c(-n2cnc(N)c(C(=O)Nc3cncc([C@]4(N)CCCOC4)c3)c2=O)c(Cl)c1 (single isomer, unassigned) [Example 187]
C = COc1cc(Cl)c(-n2cnc(N)c(C(=O)Nc3cncc([C@H]4CCC[C@H](C)N4)c3)c2=O)c(Cl)c1 (single isomer, unassigned) [Example 84]
## Input Sort the 3 compounds by pIC50; largest first, smallest last. Kindly provide the labels arranged according to the requested ordering.
## Output C, B, A
(C: 8.42, B: 8.08, A: 7.86)

###

Molecular target: GSK3B (Homo sapiens, UniProt P49841)
Sequence (P49841 whole entry): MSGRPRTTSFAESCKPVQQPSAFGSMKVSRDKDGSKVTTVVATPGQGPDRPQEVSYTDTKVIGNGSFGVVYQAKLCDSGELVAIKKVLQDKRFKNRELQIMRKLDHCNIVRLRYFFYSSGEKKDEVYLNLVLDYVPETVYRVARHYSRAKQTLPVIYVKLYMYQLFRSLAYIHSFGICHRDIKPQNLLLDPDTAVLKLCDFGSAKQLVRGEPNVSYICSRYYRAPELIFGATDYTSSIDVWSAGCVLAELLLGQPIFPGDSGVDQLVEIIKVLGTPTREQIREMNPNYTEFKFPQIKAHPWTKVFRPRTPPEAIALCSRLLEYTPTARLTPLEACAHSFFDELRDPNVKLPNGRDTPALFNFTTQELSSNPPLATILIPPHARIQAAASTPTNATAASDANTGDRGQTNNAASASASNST
Test: NanoBRET cellular target engagement assay, Nanoluc-GSK3B in HEK293 cells
Format: cell-based
Set-up: expressed in transfected cells
Settings: NanoBRET GSK3β IC50, HEK293 cells, tracer K-8, 2 hours, 37° C
Experimental: In the assay, HEK293 cells stably expressing either Nanoluc-GSK3A or Nanoluc-GSK3B were maintained in culture media and seeded, using a multidrop dispenser, at a density of 5×10^3 cells per well in 384-well white plates with 100 ng/ml doxycycline (Sigma) overnight. Compound was first diluted in DMSO to generate a 9-point serial dilution then diluted to 10× final concentration in Opti-MEM™ (Gibco). […]
endpoint: IC50 (nM)

Sample answers from the record:
{"compound": "COc1ccccc1-n1cnc(N)c(C(=O)Nc2cccc(C3CCCN3)c2N2CCOCC2)c1=O (single isomer, unassigned) [Example 166]", "unit.info": "nM", "IC50": 16100}
{"compound": "Cc1cc(C)c(-n2cnc(N)c(C(=O)Nc3cncc(C4CCCCCN4)c3)c2=O)c(C)c1 (single isomer, unassigned) [Example 146]", "unit.info": "nM", "IC50": 340}
{"compound": "COCc1cc(Cl)c(-n2cnc(N)c(C(=O)Nc3cncc(C4(N)CCC4)c3)c2=O)c(Cl)c1 [Example 65]", "unit.info": "nM", "IC50": 217}
{"compound": "COc1cc(Cl)c(-n2cnc(N)c(C(=O)Nc3cncc(C(N)CC(F)F)c3)c2=O)c(Cl)c1 (single isomer, unassigned) [Example 82]", "unit.info": "nM", "IC50": 269}

A = Nc1ncn(-c2c(Cl)cc(N3CCC3)cc2Cl)c(=O)c1C(=O)Nc1cncc([C@@H]2CCCCN2)c1 [Example 209]
B = COc1cc(Cl)c(-n2cnc(N)c(C(=O)Nc3cncc(C4CCC(C)N4)c3)c2=O)c(Cl)c1 (single isomer, unassigned) [Example 78]
## Input # min-compare on IC50 between A and B // return label of chosen record
## Output A

###

target: human GSK3α (Homo sapiens, UniProt P49840); construct: Full length human GSK3α or GSK3B expressed as N-terminal GST fusion proteins; GST (N); purchased Carna Biosciences (Japan); host or cells: baculovirus host; assay: In vitro enzymatic activity assay, GSK3α; assay type: biochemical; settings: 1.0 mM ATP, 1.0 μM peptide substrate, 120 min, 25° C, read-out: Enzyme GSK3α (IC50)
endpoint: IC50 (nM)

Examples with their reported IC50 follow.
{"compound": "COCC(N)c1cncc(NC(=O)c2c(N)ncn(-c3c(Cl)cc(Cl)cc3Cl)c2=O)c1 (single isomer, unassigned)", "endpoint": "IC50", "recorded.result": 2.5}
{"compound": "Cc1cc(C#N)cc(Cl)c1-n1cnc(N)c(C(=O)Nc2cccc([C@@H](C)N)c2)c1=O (atropisomer, axis not shown)", "endpoint": "IC50", "recorded.result": 4.8}
{"compound": "COc1cc(C)c(-n2cnc(N)c(C(=O)Nc3cccc(C4(N)CCC4)c3)c2=O)c(Cl)c1", "endpoint": "IC50", "recorded.result": 4.6}
{"compound": "CNC(C)c1cncc(NC(=O)c2c(N)ncn(-c3c(Cl)cc(Cl)cc3Cl)c2=O)c1 (single isomer, unassigned) [Example 12]", "endpoint": "IC50", "recorded.result": 3.8}
{"compound": "COC[C@H](N)c1cncc(NC(=O)c2c(N)ncn(-c3c(Cl)cc(OC(F)F)cc3Cl)c2=O)c1 (single isomer, unassigned)", "endpoint": "IC50", "recorded.result": 3.2}
{"compound": "COC(=O)c1cc(Cl)c(-n2cnc(N)c(C(=O)Nc3cncc([C@@H]4CCCCN4)c3)c2=O)c(Cl)c1", "endpoint": "IC50", "recorded.result": 6.6}

A = CCNCc1cncc(NC(=O)c2c(N)ncn(-c3c(Cl)cc(-c4cnco4)cc3Cl)c2=O)c1
B = COC[C@@H](N)c1cncc(NC(=O)c2c(N)ncn(-c3c(Cl)cc(C#N)cc3Cl)c2=O)c1 (single isomer, unassigned)
C = NCc1cccc(NC(=O)c2c(N)ncn(-c3c(Cl)cccc3Cl)c2=O)c1C(F)(F)F
D = COCc1cc(C)c(-n2cnc(N)c(C(=O)Nc3cncc4c3CCC4(C)N)c2=O)c(C)c1 (single isomer, unassigned)
## Input Order the records, beginning with the lowest IC50 and ending with the highest. # answer = labels listed in requested order
## Output D, B, A, C
(D: 2.4 nM, B: 4.7 nM, A: 14.4 nM, C: 44.8 nM)

a = CNCc1cncc(NC(=O)c2c(N)ncn(-c3c(C)cc(C(F)F)cc3C)c2=O)c1
b = COc1cc(Cl)c(-n2cnc(N)c(C(=O)Nc3cncc([C@@H](N)C(F)F)c3)c2=O)c(Cl)c1 (single isomer, unassigned)
## Input Would you let me know which has the greater IC50 value, a or b ? Choose, then provide that item's label.
## Output a
(a: 19.3 nM, b: 13.5 nM)

1 = CCNCc1cccc(NC(=O)c2c(N)ncn(-c3c(C)cc(C(F)F)cc3Cl)c2=O)c1 (atropisomer, axis not shown)
2 = Nc1ncn(-c2c(Cl)cc(N3CCC3)cc2Cl)c(=O)c1C(=O)Nc1cncc([C@@H]2CCCCN2)c1
## Input Look at 1 and 2 . Which one has the lower recorded IC50 number? // return label of chosen record
## Output 2
(2: 5.2 nM, 1: 14.4 nM)

###

target: GSK3A (Homo sapiens, UniProt P49840); experiment: NanoBRET cellular target engagement assay, Nanoluc-GSK3A in HEK293 cells; settings: NanoBRET GSK3α IC50, HEK293 cells, tracer K-8, 2 hours, 37° C
Sequence (P49840 whole entry): as the sequence (P49840 whole entry, the tested form may be a part) above
Structures can show the parent of a compound that is named as a salt.
endpoint: IC50 (nM)

// worked examples, IC50 included
{"compound": "COCc1cc(Cl)c(-n2cnc(N)c(C(=O)Nc3cncc([C@@H]4CCCCN4)c3)c2=O)c(Cl)c1", "unit.info": "nM", "recorded.result": 3.7}
{"compound": "CN(C)c1cc(Cl)c(-n2cnc(N)c(C(=O)Nc3cncc([C@@H]4CCCCN4)c3)c2=O)c(Cl)c1", "unit.info": "nM", "recorded.result": 3.3}
{"compound": "Cc1cc(F)cc(C)c1-n1cnc(N)c(C(=O)Nc2cncc([C@H]3CCCCN3)c2)c1=O [Example 161, trifluoroacetate]", "unit.info": "nM", "recorded.result": 3}
{"compound": "CCNCc1cncc(NC(=O)c2c(N)ncn(-c3c(Cl)cc(OC(F)F)cc3Cl)c2=O)c1", "unit.info": "nM", "recorded.result": 6.9}
{"compound": "CCc1cc(C)c(-n2cnc(N)c(C(=O)Nc3cncc(C4CCCCCN4)c3)c2=O)c(C)c1 (single isomer, unassigned)", "unit.info": "nM", "recorded.result": 4.3}

I = COCc1cc(C)c(-n2cnc(N)c(C(=O)Nc3cnnc(C(N)=O)c3)c2=O)c(C)c1
II = CCOc1cc(Cl)c(-n2cnc(N)c(C(=O)Nc3cncc(CNCCOC)c3)c2=O)c(Cl)c1
## Input // max by IC50 over [ I , II ] API: response body contains the label of the selected item.
## Output I
(I: 72.2 nM, II: 7.5 nM)

1 = Cc1cc(C(F)CF)cc(C)c1-n1cnc(N)c(C(=O)Nc2cncc(C(C)N)c2)c1=O (single isomer, unassigned)
2 = Cc1cc(Cl)c(-n2cnc(N)c(C(=O)Nc3cncc([C@@H]4CCCN4)c3)c2=O)c(Cl)c1
## Input Return label of the item with the larger IC50. Candidates: 1 , 2 . Give the label under which the chosen entry appears.
## Output 2
(2: 6.6 nM, 1: 4.4 nM)

I = CNC(C)c1cncc(NC(=O)c2c(N)ncn(-c3c(Cl)cc(OC)cc3Cl)c2=O)c1 (single isomer, unassigned) [Example 18]
II = Cc1cc(CS(C)(=O)=O)cc(C)c1-n1cnc(N)c(C(=O)Nc2cncc([C@H]3CCCCN3)c2)c1=O
## Input Which of these two has the smaller recorded IC50: I or II ? Write the label of whichever entry you select.
## Output I

I = CCOc1cc(Cl)c(-n2cnc(N)c(C(=O)Nc3cncc(C(N)COC)c3)c2=O)c(Cl)c1 (single isomer, unassigned)
II = NCc1cccc(NC(=O)c2c(N)ncn(-c3c(Cl)cccc3Cl)c2=O)c1C(F)(F)F
III = C[C@H](N)c1cncc(NC(=O)c2c(N)ncn(-c3c(Cl)cc(C#N)cc3Cl)c2=O)c1 (single isomer, unassigned)
## Input Arrange these compounds by their IC50, starting with the largest number. Labels, requested order.
## Output II, III, I
